# assay_remarks: protein stability index of a GFP-peptide fusion (yeast GPS) (PSI 1-4); higher = more stable; sorted into four equal gates, so the index is relative within each strain
# experimental_context: doa10∆

| sequence_entry | protein stability index |
| --- | --- |
| STELNNKQYELFMKSLI [SWI1] | 3.03 |
| IGIAGAHRVRDLMDEEL [SKI6] | 3.38 |
| RRRRLKKVEEEENAATL [RPB4] | 3.17 |
| TDDYFEELRDLYQTYHV [FAS1] | 3.09 |
| PTLGERLDNLQDIKKAK [DSN1] | 1.54 |
| KVYAQLLESYKTLSLKS [RPN7] | 2.04 |
| CSPKLPVEKVQRIAKND [DLS1] | 2.86 |
| KTGTKPAAVFTETLKHD [RPL4A] | 2.24 |
| DSTVVYPLPKFPTTSHE [MED8] | 2.75 |
| LNISPFTFGLTVVQVYD [RPP0] | 1.31 |
| SLEALIDLCHDFPHLTP [YCS4] | 2.31 |
| KPFLKKTQEYYTQYTND [CDC53] | 3.02 |
| QLYKRDPVSGAILVPMT [YJR042W/NUP85] | 1.95 |
| LLAEYDNIYRNLQKIDK [MED4] | 2.4 |
| LKCAERQLTSMEFSNLY [NUT1] | 2.06 |
| TPSFSFGAKSDENKAGA [YJL041W/NSP1] | 3.51 |
| AGVNNDNTKESKDVKMN [RTT102] | 3.1 |
| FVKFITYLTQEILILIN [SIN4] | 2.02 |
| LQELIVNGPNVHPGANY [RPO31] | 2.83 |
| KDTNDHVDKRTKIDQEA [ISW2] | 2.6 |
| QHYLDTATAPRLFDKLK [QCR6] | 2.96 |
| PKNSSSPVQIAFNRFMA [SSN8] | 1.51 |
| TGNIKHEDLVNSIESKN [COR1] | 3.13 |
| GSGSRLNRLPAASLGDM [RPL23A] | 2.28 |
| IINKVLDYQETYVEELF [YJL039C/NUP192] | 2.2 |
| NEGLVEYIDAEEEESIL [RPB2] | 3.36 |
| TWIQQFKSTMLQVSEKD [ARP7] | 1.89 |
| FSLLVKAEIPPEYAKVG [SIN4] | 2.54 |
| FISNLPNVSDKYYLEES [NUT1] | 2.16 |
| QIPTVSSPLGFEETKLS [SIR4] | 3.06 |
